self-cleavage kobs at 40 uM GlcN6P for assorted variants
B1: glmS ribozyme (parent)
chain: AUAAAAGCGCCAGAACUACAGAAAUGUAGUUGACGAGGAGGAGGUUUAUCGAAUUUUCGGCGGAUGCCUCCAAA

- Variants of: B1
- procedureText: self-cleavage kobs at 40 uM GlcN6P; higher = faster cleavage; RNA array
- conditionContext: with glucosamine-6-phosphate
Variants at the floor of the assay were thinned out.

Below are worked cases with known answers.
{"columns": ["alteration", "quantityKind", "result"],
 "data": [
  ["A15C G37U", "self-cleavage kobs at 40 uM GlcN6P", "< 1e-05 s⁻¹"],
  ["A53G U55G", "self-cleavage kobs at 40 uM GlcN6P", "0.0007 s⁻¹"],
  ["U30C G43U C70A", "self-cleavage kobs at 40 uM GlcN6P", "< 1e-05 s⁻¹"],
  ["G13U C16U C70U", "self-cleavage kobs at 40 uM GlcN6P", "5.86e-05 s⁻¹"],
  ["G44C U45G C58G", "self-cleavage kobs at 40 uM GlcN6P", "< 1e-05 s⁻¹"]
]}

Ask: Give the measured self-cleavage kobs at 40 uM GlcN6P of U45A C71A .
Result: 0.00019 s⁻¹

Ask: Give the measured self-cleavage kobs at 40 uM GlcN6P of G37A A52U G59A G60A .
Result: < 1e-05 s⁻¹

Ask: Give the measured self-cleavage kobs at 40 uM GlcN6P of G37U A39G .
Result: < 1e-05 s⁻¹

Ask: Give the measured self-cleavage kobs at 40 uM GlcN6P of A33C G43A U47G .
Result: < 1e-05 s⁻¹

Ask: Give the measured self-cleavage kobs at 40 uM GlcN6P of C11U A36C .
Result: < 1e-05 s⁻¹

Ask: Give the measured self-cleavage kobs at 40 uM GlcN6P of U55A C70A .
Result: 2.79e-05 s⁻¹

Ask: Give the measured self-cleavage kobs at 40 uM GlcN6P of G9U G29C A33U A64U .
Result: < 1e-05 s⁻¹

Ask: Give the measured self-cleavage kobs at 40 uM GlcN6P of G29U G44A .
Result: < 1e-05 s⁻¹

Ask: Give the measured self-cleavage kobs at 40 uM GlcN6P of A14G C58U .
Result: < 1e-05 s⁻¹
